Reported values of melting point for individual entries

>  <compound>
CN(O)C(=O)C(=O)c1ccc(OCCOc2ccc3ccccc3c2)cc1

>  <melting point>
161 to 165 °C

$$$$
>  <compound>
COc1nc(NC(=O)NS(=O)(=O)Nc2nc(C)cc(C)n2)nc(OC)n1

>  <melting point>
172 °C

$$$$
>  <compound>
COc1ccc(CS(=O)(=O)Cc2ccc(OC)cc2OC)c(OC)c1

>  <melting point>
104 to 106 °C

$$$$
>  <compound>
CC(CC(O)=S)(c1ccc(OCc2ccc3ccccc3n2)cc1)c1ccc(OCc2ccc3ccccc3n2)cc1

>  <melting point>
92 to 94 °C

$$$$
>  <compound>
O=C(O)CCCNCCC(=O)O

>  <melting point>
148 to 151 °C

$$$$
>  <compound>
COc1nc(N)nc2c1CCC2

>  <melting point>
134 to 135 °C

$$$$
>  <compound>
CS(=O)(=O)N1CCC(NC(=O)NC23CC4CC(CC(C4)C2)C3)CC1

>  <melting point>
228 to 229 °C

$$$$
>  <compound>
CC(C)Nn1c(CO)nc2c(N)nc3ccccc3c21

>  <melting point>
228 to 229 °C

$$$$
>  <compound>
CCOCCOCCn1c(C=O)cc2c3c(c(-c4ccccc4Cl)cc21)C(=O)NC3=O

>  <melting point>
162 to 165 °C

$$$$
>  <compound>
CC(C)(C)n1nnc(-c2ccccc2-c2ccc(C=O)cc2)n1

>  <melting point>
71 to 73 °C

$$$$
>  <compound>
O=C(c1cc(-c2ccccc2)no1)C1CCCCC1N1CCCC1 (stereo unspecified)

>  <melting point>
109 to 111 °C

$$$$
>  <compound>
O=C(CCC1CCCCC1)C1=C(O)COC1=O

>  <melting point>
75 to 78 °C

$$$$
>  <compound>
O=C1CCC(N2C(=O)c3cccc(NC(=O)COCc4ccccc4)c3C2=O)C(=O)N1 (stereo unspecified)

>  <melting point>
204 to 206 °C

$$$$
>  <compound>
CCOc1ccc2[nH]c(=O)n(CCN3CCOCC3)c2c1

>  <melting point>
107 °C

$$$$
>  <compound>
COc1ccc(-c2cc(N(Cc3ccc(OCc4ccccc4)cc3)n3cnnc3)ccc2C#N)cc1

>  <melting point>
219 to 221 °C

$$$$
>  <compound>
Cc1cc(C)c(-c2nc(C)cc3c2ncn3Cc2ccccc2)c(C)c1

>  <melting point>
177 to 180 °C

$$$$
>  <compound>
COC(=O)c1c(NC(C)=O)sc2c1CCC(c1ccccc1)C2 (stereo unspecified)

>  <melting point>
116 to 117 °C

$$$$
>  <compound>
[N-]=[N+]=NC(c1ccccc1)C(O)c1ccccc1 (stereo unspecified)

>  <melting point>
59 to 60 °C

$$$$
>  <compound>
C#CCc1c(C)nc2c(NCc3ccccc3Cl)cccn12

>  <melting point>
115 to 116 °C

$$$$
>  <compound>
O=C(CCCO)c1ccc(CCNS(=O)(=O)c2ccccc2)cc1

>  <melting point>
89 to 90 °C

$$$$
>  <compound>
Fc1cc2c(c(OCCNCCCc3c[nH]c4ccc(F)cc34)c1)OCCC2

>  <melting point>
137 to 138 °C

$$$$

Sourced from a melting point compilation (Tetko et al.; mined from patent text by program, amines drawn as free bases though some values may be those of a salt)
